TARGET OR TEST SYSTEM: UniProtKB P34972
EXPERIMENT NOTES: CB2R mediated modulation of cAMP synthesis
Type: cell-based
MEASURED METRIC: pEC50
To interpret pEC50, take it as minus log10 of a concentration measured in moles per litre.

COMPOUND STRING	pEC50
CC(C)(C)c1csc(NC(=O)[C@@H]2CCCN2CC2CCOCC2)n1	7.75
CCc1ccc(N2C(=O)CC[C@H]2C(=O)Nc2cc(C(C)(C)C)no2)cc1	6.76
C[C@@]1(C(=O)Nc2ccc(C(F)(F)F)cn2)CCCN1c1ccc(C(F)(F)F)cn1	9.20
CC(C)(C)c1nnc(NC(=O)[C@@H]2CCCN2CC2CC2)s1	6.47

Would you kindly look at the next entry?
Field request: pEC50 | item: CC(C)(C)c1cc(NC(=O)[C@@H]2CCC(=O)N2c2ccc(Cl)c(F)c2)no1
7.90

----------
TARGET OR TEST SYSTEM: human CB2R (Homo sapiens, UniProt P34972)
Sequence (P34972 whole entry): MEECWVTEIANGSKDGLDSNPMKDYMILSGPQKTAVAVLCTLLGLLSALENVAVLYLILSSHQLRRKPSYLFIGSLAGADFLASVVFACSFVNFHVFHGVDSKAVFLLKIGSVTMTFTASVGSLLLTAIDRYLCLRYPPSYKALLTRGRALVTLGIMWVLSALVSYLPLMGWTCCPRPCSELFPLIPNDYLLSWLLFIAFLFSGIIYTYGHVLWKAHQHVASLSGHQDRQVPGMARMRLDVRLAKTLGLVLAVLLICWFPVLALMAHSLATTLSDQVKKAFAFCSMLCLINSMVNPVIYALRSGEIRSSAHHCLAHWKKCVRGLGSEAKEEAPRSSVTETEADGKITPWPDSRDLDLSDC
EXPERIMENT NOTES: CB2R mediated modulation of cAMP synthesis
Assay type: cell-based
MEASURED METRIC: EC50 (nM)
Write the value in nM as a bare number.

COMPOUND	TARGET OR TEST SYSTEM	EC50, nM
CC(C)(C)Cc1cc(NC(=O)[C@@H]2CCCN2C2CCOCC2)on1	human CB2R (Homo sapiens, UniProt P34972)	14.9
CC(C)(C)c1nnc(NC(=O)[C@@H]2C[C@@H](O)CN2CC2CCOCC2)s1	human CB2R (Homo sapiens, UniProt P34972)	69.8
CC(C)(C)c1cccc(NC(=O)[C@@H]2CCC(=O)N2c2ccc(Cl)cc2)c1	human CB2R (Homo sapiens, UniProt P34972)	58.7

Reported EC50, compound CC(C)(C)c1cc(NC(=O)[C@@H]2CCC(=O)N2c2ccc(CF)cc2)on1 : ____
55.8

Try CC(C)(C)c1cc(NC(=O)[C@@H]2CCCN2Cc2ccc(OC(F)F)cc2)on1 next.
8.04

Now try COCC(C)(C)c1cc(NC(=O)[C@@H]2C[C@@H](O)CN2c2ccc(Cl)cc2)on1 .
87

Same again, this time with CC(C)(C)c1cc(NC(=O)[C@@H]2CCC(=O)N2c2ccc(C(F)(F)F)cc2)sn1
112

----------
TARGET OR TEST SYSTEM: human CB2R (Homo sapiens)
EXPERIMENT NOTES: CB2R mediated modulation of cAMP synthesis
Assay type: cell-based
MEASURED METRIC: EC50 (nM)
I only need the number, in nM, no unit after it.

Need EC50 of CC(C)(C)c1cc(NC(=O)[C@@H]2C[C@@H](O)CN2Cc2ccc(F)c(F)c2)no1 , thanks.
12.3

And the next one, CC(C)(C)c1cc(NC(=O)[C@@H]2CCC(=O)N2c2ccc(F)c(Cl)c2)no1 ?
59.3

Note, next up: COc1ccc(N2C(=O)CC[C@H]2C(=O)Nc2cc(C(C)(C)C)no2)cc1
163

Also, CC(C)(C)c1cc(NC(=O)[C@@H]2CCC(=O)N2c2cc(F)c(F)c(F)c2)no1 please.
74.7

Another: CC(C)c1cc(NC(=O)[C@@H]2CCC(=O)N2c2ccc(Cl)cc2)on1
290

----------
TARGET OR TEST SYSTEM: human CB2R (Homo sapiens)
EXPERIMENT NOTES: CB2R mediated modulation of cAMP synthesis
Format: cell-based
Recorded pEC50 for the following compounds
Please express pEC50 as -log10 of the molar concentration.

COMPOUND	TARGET OR TEST SYSTEM	pEC50
CC(C)(C)c1nnc(NC(=O)[C@@H]2CCCN2C(=O)N2CCS(=O)(=O)CC2)s1	human CB2R (Homo sapiens)	6.36

Look up pEC50 with human CB2R (Homo sapiens) for this compound: CC(C)(C)c1cc(NC(=O)[C@@H]2CCC(=O)N2c2ccc(C#N)c(F)c2)no1
7.11

Entry to check: O=C(Nc1nc(-c2ccccc2)ns1)[C@@H]1CCCN1CC1CCOCC1
7.40

For CC(C)(C)c1cc(NC(=O)[C@@H]2CCCN2CC2CCCCO2)on1 (stereo partly shown) then?
9.76

Repeat for the following compound: CC(C)(C)c1cc(NC(=O)[C@@H]2C[C@@H](O)CN2c2ncc(C(F)(F)F)cc2Cl)on1
8.49

Do the same for CC(C)(C)c1cc(NC(=O)[C@@H]2CCCN2Cc2ccc(F)c(F)c2)on1 please
9.68

Do the same for CC(C)(CO)c1cc(NC(=O)[C@@H]2CCCN2C2CCOCC2)on1 please
7.30

Again, but for COc1ccc(N2C(=O)CC[C@H]2C(=O)Nc2cc(C(C)(C)C)no2)cc1F
6.50

Subsequent entry: CC(C)(C)c1cc(NC(=O)[C@@H]2CCCN2c2ncc(Cl)cc2Cl)on1
9.87

Another: CCc1sc(NC(=O)[C@@H]2C[C@@H](O)CN2CC2CCOCC2)nc1-c1ccccc1
8.10

----------
Property: pEC50; scope: individual compounds
TARGET OR TEST SYSTEM: human CB2R (Homo sapiens)
EXPERIMENT NOTES: CB2R mediated modulation of cAMP synthesis
Format: cell-based
On this scale, pEC50 is minus log10 of a concentration expressed in M (mol/L).

COMPOUND STRING	TARGET OR TEST SYSTEM	pEC50
CC(C)(C)c1cc(NC(=O)[C@@H]2CCC(=O)N2c2cccc(Cl)c2)on1	human CB2R (Homo sapiens)	6.69
O=C(NCCC1CCCCC1)[C@@H]1CCC(=O)N1c1ccc(Cl)cc1	human CB2R (Homo sapiens)	6.48
O=C(Nc1ccc(C(F)(F)F)c(F)c1)[C@@H]1CCCN1c1ccc(Cl)cc1	human CB2R (Homo sapiens)	7.52

Record request: pEC50 value, item CC(=O)N1CCC(CNC(=O)[C@@H]2CCCN2c2ccc(Cl)cc2)CC1
10.82

Item: COCC(C)(C)c1cc(NC(=O)[C@@H]2C[C@@H](O)CN2c2ccc(Cl)cc2)no1
7.09

Now the same for CC(C)(C)c1cc(NC(=O)[C@@H]2CCC(=O)N2c2ccc(Cl)cc2F)on1
7.09

----------
TARGET OR TEST SYSTEM: human CB2R (Homo sapiens, UniProt P34972)
EXPERIMENT NOTES: CB2R mediated modulation of cAMP synthesis
Format: cell-based
CONDITION: CHO cells expressing human CB2R; inhibition of forskolin-stimulated cAMP synthesis; mean; read-out: CB2 CAMP @ EC50 nM (mean)
MEASURED METRIC: EC50 (nM)
Provide the reading as a plain figure in nM.

COMPOUND	EC50, nM
O=C(Nc1ccc(C(F)(F)F)cn1)C1CCCN1c1ncc(C(F)(F)F)cc1Cl (stereo not drawn)	23.2

GET /values?readout=EC50&system=human CB2R (Homo sapiens, UniProt P34972)&item= CC(C)(C)c1nnc(NC(=O)[C@@H]2CCCN2C2CC2)s1
109

Try the compound O=C(Nc1nc2c(s1)CCCC2)[C@@H]1CCCN1c1ccc(Cl)cc1
12.7

Cc1nonc1CNC(=O)[C@@H]1CCCN1c1ccc(Cl)cc1 ?
498

Please do the same for COc1ccc(-c2nsc(NC(=O)[C@@H]3CCC(=O)N3c3ccc(Cl)cc3)n2)cc1 as well.
194

Try this compound too: O=C(Nc1nc(-c2ccccc2)ns1)[C@@H]1CCC(=O)N1c1ncc(C(F)(F)F)cc1Cl
0.549

Lookup O=C(NCC1CCCCC1)[C@@H]1C[C@@H](O)CN1C(=O)C1CCC(F)(F)CC1
432

Try the compound O=C(Nc1nc2cc(Cl)ccc2[nH]1)[C@@H]1CCC(=O)N1c1ccc(Cl)cc1
255

O=C(Nc1nc2cc(Cl)ccc2s1)[C@@H]1CCCN1CC1CCOCC1 , same question.
3.14

----------
Here the recorded EC50 is given for each entry.
TARGET OR TEST SYSTEM: human CB2R (Homo sapiens)
EXPERIMENT NOTES: CB2R mediated modulation of cAMP synthesis
Type: cell-based
Just the number plus its unit, please.

Any idea what EC50 was measured for CC(C)(C)Cc1cc(NC(=O)[C@@H]2CCCN2C2CCCC2)on1 ?
113 nM

Also CC(C)(C)c1cc(NC(=O)[C@@H]2CCCN2C2CCCC2)on1 ?
2.39 nM

Can you handle CCC(C)N1CCC[C@H]1C(=O)Nc1nnc(C(C)(C)C)s1 (stereo partly shown) next?
390 nM

Query CC(C)(C)c1cc(NC(=O)[C@@H]2CCCN2c2ncc(Cl)cc2F)on1 next
0.02 nM

O=C(NCCN1CCN(c2nccc(C(F)(F)F)n2)CC1)[C@@H]1CCCN1c1ccc(Cl)cc1 , same question.
381 nM

Would you mind doing O=C(Nc1nc(-c2ccccc2)ns1)[C@@H]1C[C@H](O)CN1c1ccc(C(F)(F)F)cn1 as well?
18.4 nM

Again, but for C[C@@]1(C(=O)Nc2ccc(C(F)(F)F)cn2)CCCN1c1ccc(Cl)cc1
27.2 nM

Also CC(C)(C)c1cc(NC(=O)[C@]2(C)CCCN2c2ccc(C(F)(F)F)cn2)no1 ?
0.015 nM

Try the molecule COc1ccc(N2C(=O)CC[C@H]2C(=O)Nc2cc(C(C)(C)C)no2)nc1
22.1 nM

Follow-up item: CC(C)N1CCCC1C(=O)Nc1cc(C(C)(C)C)on1 (stereo not shown)
30.3 nM
